percentage of competition from bead binding reference
System: BRANCHED-CHAIN AMINO ACID AMINOTRANSFERASE, PUTATI (TB427.02.4590)
Assay: Multitargeted bead mixture competition
Format: binding
Details: free ligand 100 μM, T. brucei lysate
// note: answer is a bare numeric in %

Reference set, count: 3
Nc1nc2cccc(-c3ccccc3)c2n1Cc1ccc(Cl)c(Cl)c1
51
Cc1ccc2nc(N)[nH]c(=O)c2c1Sc1ccncc1
9
CN(Cc1cnc2nc(N)nc(N)c2n1)c1ccc(C(=O)N[C@@H](CCC(=O)O)C(=O)O)cc1 [MTX, methotrexate]
34

The record that follows has no percentage of competition from bead binding shown yet.
Per the record, Nc1nc(O)c2c(CCc3ccccc3)c[nH]c2n1 has percentage of competition from bead binding of -22

---

Target: PTR-1 (Trypanosoma brucei brucei, UniProt O76290)
Sequence (O76290 entry or part of it): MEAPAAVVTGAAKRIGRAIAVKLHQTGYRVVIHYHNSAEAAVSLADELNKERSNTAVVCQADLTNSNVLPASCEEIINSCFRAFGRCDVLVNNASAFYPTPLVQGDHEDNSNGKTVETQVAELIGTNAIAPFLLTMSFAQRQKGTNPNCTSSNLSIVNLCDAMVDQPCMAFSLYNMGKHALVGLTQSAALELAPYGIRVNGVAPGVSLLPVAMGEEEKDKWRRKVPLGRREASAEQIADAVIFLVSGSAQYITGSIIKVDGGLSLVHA
Assay: Individual bead pull down with competing free ligand
Conditions: competing free ligand 100 μM; bead = immobilized compound of the row; T. brucei lysate; read-out: % Inhibition of protein binding to bead, PTR-1, T. brucei
Listed next: entries and their corresponding inhibition at 100 µM.
Could you give me the number in %? Just the number is fine.

Examples with answers:
NCCCCCOc1ccc(Cc2cnc(N)nc2N)cc1
77
Nc1nc(=O)c2nc(CNc3ccc(C(=O)N[C@@H](CCC(=O)O)C(=O)O)cc3)cnc2[nH]1
92
NCCOCCOc1ccc(Cc2cnc(N)nc2N)cc1
51
NCCOCCOc1cccc(Cc2cnc(N)nc2N)c1
51
NCCCCCOc1cccc(Cc2cnc(N)nc2N)c1
56

In the following, a different molecule is considered.
Lab book: inhibition at 100 µM of CN(Cc1cnc2nc(N)nc(N)c2n1)c1ccc(C(=O)N[C@@H](CCC(=O)O)C(=O)O)cc1 [MTX, methotrexate] noted as 90

---

Listing of recorded percentage of competition from bead binding by entry.
Molecular target: PTERIDINE REDUCTASE (TB927.8.2210) (Trypanosoma brucei brucei, UniProt O76290)
Sequence (O76290 entry or part of it): as above
Experiment: Multitargeted bead mixture competition
Type: binding, T. brucei
Details: multitargeted bead mixture; free ligand 100 μM; T. brucei lysate; TB927.8.2210 PTERIDINE REDUCTASE
Kindly provide the numeric value in % only, without the unit symbol.

Nc1nc(O)c2c(CCc3ccccc3)c[nH]c2n1 [compound 5]
93
CN(Cc1cnc2nc(N)nc(N)c2n1)c1ccc(C(=O)N[C@@H](CCC(=O)O)C(=O)O)cc1 [MTX, methotrexate]
93
Cc1ccc2nc(N)[nH]c(=O)c2c1Sc1ccncc1 [NTX, nolatrexed]
16

Kindly review the next compound as well.
For reference, reported percentage of competition from bead binding for Nc1nc2cccc(-c3ccccc3)c2n1Cc1ccc(Cl)c(Cl)c1 [compound 3] stands at 89

---

The entries below are paired with their reported fold changes relative to vehicle control.
Target: HeLa cell extract proteins (Homo sapiens, UniProt O60664)
Construct: endogenous in cells; host or cells: HeLa cell extract
Sequence (O60664 whole entry): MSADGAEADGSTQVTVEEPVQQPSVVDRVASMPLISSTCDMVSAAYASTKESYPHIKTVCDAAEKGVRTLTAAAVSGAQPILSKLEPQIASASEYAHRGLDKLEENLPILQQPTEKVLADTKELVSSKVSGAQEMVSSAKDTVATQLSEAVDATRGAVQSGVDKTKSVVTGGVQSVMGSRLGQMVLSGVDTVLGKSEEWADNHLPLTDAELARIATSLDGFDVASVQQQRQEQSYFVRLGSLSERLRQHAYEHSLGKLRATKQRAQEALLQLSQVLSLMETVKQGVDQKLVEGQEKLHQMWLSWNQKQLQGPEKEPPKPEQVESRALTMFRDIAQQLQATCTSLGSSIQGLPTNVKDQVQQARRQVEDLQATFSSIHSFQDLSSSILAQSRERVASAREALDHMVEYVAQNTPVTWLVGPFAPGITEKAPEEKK
Type: binding
Conditions: protein M6PRBP1; HeLa
Response field accepts a number only; no unit should be typed.

NCCOCCOCC(=O)Nc1nc2ncc(CNc3ccc(C(=O)NC(CCC(=O)O)C(=O)O)cc3)nc2c(=O)[nH]1 (stereo not drawn)
1.27
CCCCCCOc1ccc(Cc2cnc(N)nc2N)cc1
1.23
Nc1nc2c(c(=O)[nH]1)N(C=O)C(CNc1ccc(C(=O)N[C@@H](CCC(=O)O)C(=O)O)cc1)CN2 (stereo partly drawn)
1
CCCCCCOc1cccc(Cc2cnc(N)nc2N)c1
1.68
NCCCNc1ccc(C(=O)NC(CCC(=O)O)C(=O)O)cc1 (stereo not drawn)
0.93

Input Nc1nc2cccc(-c3ccccc3)c2n1Cc1ccc(Cl)c(Cl)c1 . Output fold changes relative to vehicle control: 0.94

---

Test system: L. major lysate proteins
Experiment: Multitargeted bead mixture chemoproteomics, single concentration competition, proteome-wide
Assay type: binding
Settings: protein LMJF.36.5620 ISOLEUCYL-TRNA SYNTHETASE, PUTATIVE
Recorded fold change vs vehicle control, one value per entry.
# answer = number (no unit)

CCCCCCOc1cccc(Cc2cnc(N)nc2N)c1
1.15
NCCCNc1ccc(C(=O)NC(CCC(=O)O)C(=O)O)cc1 (stereo not shown)
1
Nc1nc2cccc(-c3ccccc3)c2n1Cc1ccc(Cl)c(Cl)c1
0.99

Documented fold change vs vehicle control of Nc1nc2c(c(=O)[nH]1)N(C=O)C(CNc1ccc(C(=O)N[C@@H](CCC(=O)O)C(=O)O)cc1)CN2 (stereo partly shown) : 0.94

---

This section presents compounds with their documented fold changes relative to vehicle control values.
Target: HeLa cell extract proteins (Homo sapiens)
Construct: endogenous in cells; host or cells: HeLa cell extract
Type: binding
Conditions: HeLa; protein ARFGEF2
Respond using a number only.

Field: example entries. Status: answers known.
NCCOCCOCC(=O)Nc1nc2ncc(CNc3ccc(C(=O)NC(CCC(=O)O)C(=O)O)cc3)nc2c(=O)[nH]1 (stereo not drawn)
1.15
CCCCCCOc1ccc(Cc2cnc(N)nc2N)cc1
1.04
NCCCNc1ccc(C(=O)NC(CCC(=O)O)C(=O)O)cc1 (stereo not drawn)
1.17
Nc1nc2cccc(-c3ccccc3)c2n1Cc1ccc(Cl)c(Cl)c1
0.95
Nc1nc2c(c(=O)[nH]1)N(C=O)C(CNc1ccc(C(=O)N[C@@H](CCC(=O)O)C(=O)O)cc1)CN2 (stereo partly drawn)
1.01

Data point: CCCCCCOc1cccc(Cc2cnc(N)nc2N)c1 ; fold changes relative to vehicle control = 1.11

---

Target: HeLa cell extract proteins (Homo sapiens)
Construct: endogenous in cells; host or cells: HeLa cell extract
Format: binding
Conditions: HeLa; protein MOCOS
Flag rule - fold changes relative to vehicle control less than 1 flags MET; the remaining entries get NOT MET.

NCCCNc1ccc(C(=O)NC(CCC(=O)O)C(=O)O)cc1 (stereo not drawn)
NOT MET
NCCOCCOCC(=O)Nc1nc2ncc(CNc3ccc(C(=O)NC(CCC(=O)O)C(=O)O)cc3)nc2c(=O)[nH]1 (stereo not drawn)
NOT MET
Nc1nc2c(c(=O)[nH]1)N(C=O)C(CNc1ccc(C(=O)N[C@@H](CCC(=O)O)C(=O)O)cc1)CN2 (stereo partly drawn)
NOT MET
CCCCCCOc1cccc(Cc2cnc(N)nc2N)c1
NOT MET
CCCCCCOc1ccc(Cc2cnc(N)nc2N)cc1
NOT MET

Lab note: next compound to report on.
# input is_below(fold changes relative to vehicle control, 1) for Nc1nc2cccc(-c3ccccc3)c2n1Cc1ccc(Cl)c(Cl)c1 ?
# output MET

---

As shown below, each of these molecules has a reported percentage of competition from bead binding value.
Tested on: NGG1 INTERACTING FACTOR 3-LIKE (Tb427tmp.02.5000)
Format: binding
Settings: multitargeted bead mixture; free ligand 100 μM; T. brucei lysate; Tb427tmp.02.5000
Give the value in % but do not write % after it.

Illustrative cases are given below, each with its answer.
Nc1nc(O)c2c(CCc3ccccc3)c[nH]c2n1 [compound 5]
6
Cc1ccc2nc(N)[nH]c(=O)c2c1Sc1ccncc1 [NTX, nolatrexed]
87
Nc1nc2cccc(-c3ccccc3)c2n1Cc1ccc(Cl)c(Cl)c1 [compound 3]
-6

# next molecule below
CN(Cc1cnc2nc(N)nc(N)c2n1)c1ccc(C(=O)N[C@@H](CCC(=O)O)C(=O)O)cc1 [MTX, methotrexate] tested on NGG1 INTERACTING FACTOR 3-LIKE (Tb427tmp.02.5000) gave percentage of competition from bead binding: 31

---

Biological target: HeLa cell extract proteins (Homo sapiens, UniProt P16615)
Construct: endogenous in cells; host or cells: HeLa cell extract
Sequence (P16615 whole entry): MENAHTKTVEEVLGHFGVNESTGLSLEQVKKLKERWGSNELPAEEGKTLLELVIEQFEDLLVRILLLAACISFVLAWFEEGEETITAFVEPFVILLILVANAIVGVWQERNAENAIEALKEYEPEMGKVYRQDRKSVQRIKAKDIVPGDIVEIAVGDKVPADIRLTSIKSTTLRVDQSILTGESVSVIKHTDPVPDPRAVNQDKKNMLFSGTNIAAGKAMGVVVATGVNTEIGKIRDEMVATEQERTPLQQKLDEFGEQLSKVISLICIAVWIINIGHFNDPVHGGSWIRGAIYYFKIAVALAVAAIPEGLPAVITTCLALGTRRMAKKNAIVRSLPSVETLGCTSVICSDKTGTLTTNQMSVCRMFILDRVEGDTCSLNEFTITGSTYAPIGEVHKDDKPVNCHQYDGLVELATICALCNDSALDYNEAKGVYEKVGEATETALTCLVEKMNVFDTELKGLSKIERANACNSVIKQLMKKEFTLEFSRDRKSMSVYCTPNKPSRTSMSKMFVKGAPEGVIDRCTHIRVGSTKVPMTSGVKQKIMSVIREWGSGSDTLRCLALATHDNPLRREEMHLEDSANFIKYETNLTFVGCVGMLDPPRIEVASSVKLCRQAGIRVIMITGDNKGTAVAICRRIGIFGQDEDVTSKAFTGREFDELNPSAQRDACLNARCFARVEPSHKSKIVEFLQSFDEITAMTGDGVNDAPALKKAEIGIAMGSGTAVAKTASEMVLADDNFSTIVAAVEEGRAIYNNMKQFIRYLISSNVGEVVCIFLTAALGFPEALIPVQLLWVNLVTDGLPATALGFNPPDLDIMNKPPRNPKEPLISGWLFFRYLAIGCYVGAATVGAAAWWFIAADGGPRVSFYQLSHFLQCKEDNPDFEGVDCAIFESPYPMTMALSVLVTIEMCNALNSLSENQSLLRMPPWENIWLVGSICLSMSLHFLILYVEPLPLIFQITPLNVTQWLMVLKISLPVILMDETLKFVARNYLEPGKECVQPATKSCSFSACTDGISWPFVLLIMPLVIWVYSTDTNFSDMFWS
Format: binding
Conditions: HeLa; protein ATP2A2
readout: fold changes relative to vehicle control

# example entries with known answers
CCCCCCOc1cccc(Cc2cnc(N)nc2N)c1 [compound 2]
1.12
NCCCNc1ccc(C(=O)NC(CCC(=O)O)C(=O)O)cc1 (stereo not drawn) [compound 7]
0.99
Nc1nc2c(c(=O)[nH]1)N(C=O)C(CNc1ccc(C(=O)N[C@@H](CCC(=O)O)C(=O)O)cc1)CN2 (stereo partly drawn) [LEU, leucovorin]
1

Input CCCCCCOc1ccc(Cc2cnc(N)nc2N)cc1 [compound 1] . Output fold changes relative to vehicle control: 1.05

// field: fold changes relative to vehicle control; key: NCCOCCOCC(=O)Nc1nc2ncc(CNc3ccc(C(=O)NC(CCC(=O)O)C(=O)O)cc3)nc2c(=O)[nH]1 (stereo not drawn) [compound 6] ; value = 1.03

The compound listed as Nc1nc2cccc(-c3ccccc3)c2n1Cc1ccc(Cl)c(Cl)c1 [compound 3] has a reported fold changes relative to vehicle control of 0.98

---

Target: HeLa cell extract proteins (Homo sapiens)
Construct: endogenous in cells; host or cells: HeLa cell extract
Type: binding
Conditions: protein DCTN1; HeLa
# key: entry, value: fold changes relative to vehicle control
I only need the number, thanks.

CCCCCCOc1cccc(Cc2cnc(N)nc2N)c1 [compound 2]
1.27
NCCCNc1ccc(C(=O)NC(CCC(=O)O)C(=O)O)cc1 (stereo not drawn) [compound 7]
1.03
Nc1nc2cccc(-c3ccccc3)c2n1Cc1ccc(Cl)c(Cl)c1 [compound 3]
1.1
CCCCCCOc1ccc(Cc2cnc(N)nc2N)cc1 [compound 1]
1.18
Nc1nc2c(c(=O)[nH]1)N(C=O)C(CNc1ccc(C(=O)N[C@@H](CCC(=O)O)C(=O)O)cc1)CN2 (stereo partly drawn) [LEU, leucovorin]
1.14

// field: fold changes relative to vehicle control; key: NCCOCCOCC(=O)Nc1nc2ncc(CNc3ccc(C(=O)NC(CCC(=O)O)C(=O)O)cc3)nc2c(=O)[nH]1 (stereo not drawn) [compound 6] ; value = 1.32
